In this section we review reported EC50 values for a set of compounds.
Molecular target: [NEK7]-[compound of formula (I)]-[CRBN/DDB1] complex (Homo sapiens, UniProt Q8TDX7+Q96SW2)
Sequence (Q8TDX7 whole entry): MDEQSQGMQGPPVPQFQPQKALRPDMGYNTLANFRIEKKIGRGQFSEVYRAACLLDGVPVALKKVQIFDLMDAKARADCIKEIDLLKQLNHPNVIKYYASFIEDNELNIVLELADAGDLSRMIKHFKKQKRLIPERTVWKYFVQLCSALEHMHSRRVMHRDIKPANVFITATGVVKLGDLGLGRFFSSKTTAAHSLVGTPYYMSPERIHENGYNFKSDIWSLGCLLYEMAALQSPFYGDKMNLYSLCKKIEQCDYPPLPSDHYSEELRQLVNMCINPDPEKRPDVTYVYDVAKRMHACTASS
Sequence (Q96SW2 whole entry): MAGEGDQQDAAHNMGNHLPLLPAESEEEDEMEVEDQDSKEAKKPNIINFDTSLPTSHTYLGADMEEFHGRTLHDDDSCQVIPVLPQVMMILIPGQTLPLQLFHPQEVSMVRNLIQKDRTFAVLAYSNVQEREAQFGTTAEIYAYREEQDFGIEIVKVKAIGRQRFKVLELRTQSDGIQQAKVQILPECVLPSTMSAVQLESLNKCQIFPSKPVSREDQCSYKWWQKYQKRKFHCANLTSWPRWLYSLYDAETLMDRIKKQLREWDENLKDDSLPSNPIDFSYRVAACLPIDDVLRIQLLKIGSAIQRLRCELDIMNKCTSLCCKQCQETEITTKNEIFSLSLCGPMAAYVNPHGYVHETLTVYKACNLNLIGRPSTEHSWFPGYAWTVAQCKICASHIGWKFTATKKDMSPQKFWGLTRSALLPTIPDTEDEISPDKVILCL
Sequence (Q16531 whole entry partner): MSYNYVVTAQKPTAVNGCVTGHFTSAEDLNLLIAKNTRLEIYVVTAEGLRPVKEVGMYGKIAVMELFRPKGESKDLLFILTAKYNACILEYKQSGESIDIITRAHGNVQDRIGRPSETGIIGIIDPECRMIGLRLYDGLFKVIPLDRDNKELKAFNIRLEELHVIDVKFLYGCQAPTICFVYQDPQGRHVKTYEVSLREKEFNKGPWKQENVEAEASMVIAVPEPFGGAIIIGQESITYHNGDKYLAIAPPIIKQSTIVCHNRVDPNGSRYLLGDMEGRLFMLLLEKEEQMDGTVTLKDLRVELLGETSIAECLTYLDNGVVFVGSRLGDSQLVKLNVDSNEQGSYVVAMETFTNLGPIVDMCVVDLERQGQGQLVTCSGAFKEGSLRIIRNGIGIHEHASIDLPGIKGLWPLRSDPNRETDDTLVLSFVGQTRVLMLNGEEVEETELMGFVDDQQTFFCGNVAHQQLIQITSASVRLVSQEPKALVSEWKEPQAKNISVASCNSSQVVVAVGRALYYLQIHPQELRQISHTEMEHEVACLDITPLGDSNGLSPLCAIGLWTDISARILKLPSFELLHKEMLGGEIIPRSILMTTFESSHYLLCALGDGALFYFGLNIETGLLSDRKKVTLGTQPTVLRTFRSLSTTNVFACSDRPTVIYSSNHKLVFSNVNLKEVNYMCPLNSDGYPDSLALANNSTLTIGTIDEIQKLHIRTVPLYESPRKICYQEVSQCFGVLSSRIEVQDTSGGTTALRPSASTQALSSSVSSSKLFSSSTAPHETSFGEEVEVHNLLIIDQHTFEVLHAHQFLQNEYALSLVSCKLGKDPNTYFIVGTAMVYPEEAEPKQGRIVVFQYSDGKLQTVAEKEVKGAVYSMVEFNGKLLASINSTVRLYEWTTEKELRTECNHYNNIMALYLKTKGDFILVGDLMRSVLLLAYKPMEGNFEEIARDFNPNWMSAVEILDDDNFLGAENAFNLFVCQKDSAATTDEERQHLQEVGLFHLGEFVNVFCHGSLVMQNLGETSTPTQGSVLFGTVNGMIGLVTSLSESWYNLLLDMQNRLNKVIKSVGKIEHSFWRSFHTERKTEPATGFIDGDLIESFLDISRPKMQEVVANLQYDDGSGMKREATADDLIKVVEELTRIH
Assay: HTRF ternary complex assay
Type: binding
Conditions: dose-response, 180 min at 25° C.; read-out: HTRF ternary complex Average pEC50 by molecule (converted)

Below: 5 compounds and their reported EC50.
Compound: CC(=O)Nc1ccc(-c2ccc3c(c2)CN(C2CCC(=O)NC2=O)C3=O)nc1 (stereo not drawn)
Measured on: [NEK7]-[compound of formula (I)]-[CRBN/DDB1] complex (Homo sapiens, UniProt Q8TDX7+Q96SW2)
EC50: 100 to 316 nM
//
Compound: CC1c2cc(-c3ccccn3)ccc2C(=O)N1C1CCC(=O)NC1=O (stereo not drawn)
Measured on: [NEK7]-[compound of formula (I)]-[CRBN/DDB1] complex (Homo sapiens, UniProt Q8TDX7+Q96SW2)
EC50: 100 to 316 nM
//
Compound: O=C1CCC(N2Cc3cc(-c4ccc(C(F)(F)F)cn4)ccc3C2=O)C(=O)N1 (stereo not drawn)
Measured on: [NEK7]-[compound of formula (I)]-[CRBN/DDB1] complex (Homo sapiens, UniProt Q8TDX7+Q96SW2)
EC50: 316 to 1000 nM
//
Compound: CC(=O)NC1CCC(c2ccc3c(c2)CN(C2CCC(=O)NC2=O)C3=O)NC1 (single isomer, unassigned) [33 Isomer 1]
Measured on: [NEK7]-[compound of formula (I)]-[CRBN/DDB1] complex (Homo sapiens, UniProt Q8TDX7+Q96SW2)
EC50: 100 to 316 nM
//
Compound: O=C1CCC(N2Cc3cc(-c4cc5ccccc5cn4)ccc3C2=O)C(=O)N1 (stereo not drawn)
Measured on: [NEK7]-[compound of formula (I)]-[CRBN/DDB1] complex (Homo sapiens, UniProt Q8TDX7+Q96SW2)
EC50: 100 to 316 nM

Shift focus to the following entry.
Exercise: Looking for the measured EC50 of O=C1CCC(N2Cc3cc(-c4ccc5ccccc5n4)ccc3C2=O)C(=O)N1 (stereo not drawn) , can you help?
Solution: 100 to 316 nM

###

Target: [NEK7]-[compound of formula (I)]-[CRBN/DDB1] complex (Homo sapiens, UniProt Q8TDX7+Q96SW2)
Experiment: AlphaLISA dose response ternary complex formation assay
Type: binding
Details: 1 μM compound; normalized to maximum signal of Compound 2 (positive control) and DMSO background; read-out: Normalized AlphaLISA ternary complex average signal at 1 μM molecule
Description: The effect of the molecular glue compounds of the invention on the formation of a ternary complex composed of [NEK7]-[compound of formula (I)]-[CRBN/DDB1] was investigated with two methods: AlphaLISA dose response assay or HTRF ternary complex assay. […] The read-out was performed with PerkinElmer Enspire Multimode Plate Reader (method for AlphaLISA 384-well low volume, Filterset: λexc=680 nm, λem=615 nm). […]
Measured endpoint: activation at 1 µM

Below: 8 compounds and their reported activation at 1 µM.
Compound: COc1ccc(-c2ccc3c(c2)CN(C2CCC(=O)NC2=O)C3=O)nc1 (stereo not shown) [25(2)]
activation at 1 µM: > 80%

Compound: O=C1CCC(N2Cc3cc(-c4ccc5ccccc5n4)ccc3C2=O)C(=O)N1 (stereo not shown) [5(2)]
activation at 1 µM: > 80%

Compound: O=C1CCC(N2Cc3cc([C@H]4CCCCN4)ccc3C2=O)C(=O)N1 (stereo partly shown) [Compound 9]
activation at 1 µM: > 80%

Compound: O=C1CCC(N2Cc3cc(C4CCCN4)ccc3C2=O)C(=O)N1 (stereo not shown) [Compound 6]
activation at 1 µM: 20 to 80%

Compound: O=C1CCC(N2Cc3cc(C4CCC(NC(=O)c5ccccc5)CN4)ccc3C2=O)C(=O)N1 (stereo not shown) [Compound 56]
activation at 1 µM: > 80%

Compound: O=C1CCC(N2Cc3cc(C4CCCCN4)cc(F)c3C2=O)C(=O)N1 (stereo not shown) [Compound 24]
activation at 1 µM: < 10%

Compound: O=C1CCC(N2Cc3cc(C4CCCCN4)c(F)cc3C2=O)C(=O)N1 (stereo not shown) [Compound 23]
activation at 1 µM: < 10%

Compound: COc1ccnc(-c2ccc3c(c2)CN(C2CCC(=O)NC2=O)C3=O)c1 (stereo not shown) [27(2)]
activation at 1 µM: 20 to 80%

Exercise: Looking for the measured activation at 1 µM of O=C1CCC(N2Cc3c(ccc(C4CCCCN4)c3F)C2=O)C(=O)N1 (stereo not shown) [Compound 22] , can you help?
Solution: < 10%

Exercise: Looking for the measured activation at 1 µM of O=C1CCC(N2Cc3cc(C4CSCCN4)ccc3C2=O)C(=O)N1 (stereo not shown) [Compound 57] , can you help?
Solution: 20 to 80%

Exercise: Looking for the measured activation at 1 µM of O=C1CCC(N2Cc3cc(C4CCCCN4)ccc3C2=O)C(=O)N1 (stereo not shown) [Compound 2] , can you help?
Solution: > 80%

Exercise: Looking for the measured activation at 1 µM of O=C1CCC(N2Cc3cc(-c4ccccn4)sc3C2=O)C(=O)N1 (stereo not shown) [30(2)] , can you help?
Solution: < 10%

Exercise: Looking for the measured activation at 1 µM of CCCCC1CCCC(c2ccc3c(c2)CN(C2CCC(=O)NC2=O)C3=O)N1 (mixture of isomers) [Compound 40] , can you help?
Solution: > 80%

Exercise: Looking for the measured activation at 1 µM of O=C1CCC(N2C(=O)c3cccc4c(C5CCCCN5)ccc2c34)C(=O)N1 (stereo not shown) [Compound 59] , can you help?
Solution: < 10%

Exercise: Looking for the measured activation at 1 µM of O=C1CCC(N2Cc3cc(-c4ccc(C(F)(F)F)cn4)ccc3C2=O)C(=O)N1 (stereo not shown) [16(2)] , can you help?
Solution: > 80%

Exercise: Looking for the measured activation at 1 µM of O=C1CCC(N2Cc3c(csc3C3CCCCO3)C2=O)C(=O)N1 (stereo not shown) [Compound 71] , can you help?
Solution: < 10%

Exercise: Looking for the measured activation at 1 µM of O=C1CCC(N2Cc3cc(-c4cc5ccccc5cn4)ccc3C2=O)C(=O)N1 (stereo not shown) [6(2)] , can you help?
Solution: > 80%

Exercise: Looking for the measured activation at 1 µM of O=C1CCC(N2Cc3cc(C4CCCCCN4)ccc3C2=O)C(=O)N1 (stereo not shown) [Compound 62] , can you help?
Solution: 20 to 80%

Exercise: Looking for the measured activation at 1 µM of O=C1CCC(N2C(=O)c3ccc(-c4ccccn4)c4cccc2c34)C(=O)N1 (stereo not shown) [23(2)] , can you help?
Solution: > 80%
